# measurement-target: active p38 alpha enzyme (Upstate Biotechnology) (Homo sapiens, UniProt Q16539)
# Construct: purchased Upstate Biotechnology
# Sequence (Q16539 whole entry): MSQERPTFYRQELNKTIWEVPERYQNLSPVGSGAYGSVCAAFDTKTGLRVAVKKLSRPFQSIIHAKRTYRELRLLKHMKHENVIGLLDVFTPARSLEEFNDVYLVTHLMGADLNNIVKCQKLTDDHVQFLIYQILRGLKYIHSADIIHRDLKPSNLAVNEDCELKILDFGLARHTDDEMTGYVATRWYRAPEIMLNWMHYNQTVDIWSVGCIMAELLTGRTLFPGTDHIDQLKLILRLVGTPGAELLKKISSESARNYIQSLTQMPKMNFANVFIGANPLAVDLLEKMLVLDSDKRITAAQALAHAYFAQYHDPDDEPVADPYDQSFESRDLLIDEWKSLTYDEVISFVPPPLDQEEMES
# procedure-summary: p38α biochemical assay (ATP turnover, luminescent detection, Cambrex PKlight)
# experimental-setup: p38α kinase; Table 1 Biological Activity
pIC50: −log10 of the molar value.
Give measured pIC50 for each item. Keep answers brief.

Give pIC50 for all compounds that follow.
1. CC(C)NC(=O)c1csc(-c2c(-c3ccc(F)cc3)noc2CN2CCC(N(C)C)C2)n1 (stereo not shown)
2. COc1ccncc1NC(=O)c1csc(-c2sc(C)nc2-c2ccc(F)cc2)n1
3. CC(C)C(CO)NC(=O)c1csc(-c2c(-c3ccc(F)cc3)n[nH]c2C2CCNCC2)n1 (stereo not shown)
4. CCC(C(=O)N1CCC(c2[nH]nc(-c3ccc(F)cc3)c2-c2nc(C(=O)NC(C)C)cs2)CC1)c1ccccc1 (stereo not shown)

Response line:
["< 6.00", "≥ 6.00", "≥ 6.00", "< 6.00"]
